- Tested on: Trichophyton rubrum
- ASSAY EXPLANATION: Antifungal activity against Trichophyton rubrum after 7 days by serial dilution method
- Assay type: functional
- ASSAY CONDITIONS: 168 h
Consider the cut-off 0.06 µg/mL. If the recorded MIC80 is strictly smaller, the label is Condition met; if not, the label is Condition not met.

Use the examples below as a reference point.
{"COMPOUND": "CCCc1ccc(CON=C2CCN(CC(O)(Cn3cncn3)c3ccc(F)cc3F)CC2)cc1 (racemic)", "GROUP LABEL": "Condition not met"}
{"COMPOUND": "OC(CN1CCC(=NOCc2ccc(Cl)cc2)CC1)(Cn1cncn1)c1ccc(F)cc1F (racemic)", "GROUP LABEL": "Condition not met"}
{"COMPOUND": "CCC(C)n1ncn(-c2ccc(N3CCN(c4ccc(OCC5COC(Cn6cncn6)(c6ccc(Cl)cc6Cl)O5)cc4)CC3)cc2)c1=O (stereo unspecified)", "GROUP LABEL": "Condition met"}
{"COMPOUND": "C=Cc1ccc(CON=C2CCN(CC(O)(Cn3cncn3)c3ccc(F)cc3F)CC2)cc1 (racemic)", "GROUP LABEL": "Condition not met"}
{"COMPOUND": "Cc1cccc(CON=C2CCN(CC(O)(Cn3cncn3)c3ccc(F)cc3F)CC2)c1 (racemic)", "GROUP LABEL": "Condition not met"}
{"COMPOUND": "OC(CN1CCC(=NOCc2ccc(Cl)cc2Cl)CC1)(Cn1cncn1)c1ccc(F)cc1F (racemic)", "GROUP LABEL": "Condition not met"}

Qu. Hello, is MIC80 of the following compound strictly smaller than 0.06 µg/mL? OC(CN1CCC(=NOCc2cccc(Cl)c2)CC1)(Cn1cncn1)c1ccc(F)cc1F (racemic)
Ans. Condition met

Qu. Please state whether MIC80 is below 0.06 µg/mL for OC(CN1CCC(=NOCc2cccc3ccccc23)CC1)(Cn1cncn1)c1ccc(F)cc1F (racemic)
Ans. Condition not met

Qu. Here's an entry: OC(CN1CCC(=NOCc2cccc(Br)c2)CC1)(Cn1cncn1)c1ccc(F)cc1F (racemic) . Is its MIC80 below 0.06 µg/mL?
Ans. Condition not met

Qu. Strictly below 0.06 µg/mL: is that where MIC80 of COc1ccc(CON=C2CCN(CC(O)(Cn3cncn3)c3ccc(F)cc3F)CC2)cc1 (racemic) sits?
Ans. Condition not met

Qu. MIC80 strictly < 0.06 µg/mL for this compound? OC(CN1CCC(=NOCc2ccccc2)CC1)(Cn1cncn1)c1ccc(F)cc1F (racemic)
Ans. Condition not met
